tested on: MDA-MB-468 breast; test: NCI-60 one-dose screen, 48 h (100 = growth as untreated, 0 = no growth, -100 = all killed); conditions: 10 µM unless noted
The panel holds about 83,000 compounds, 20% with a hit somewhere; the sample as a whole holds those more often.
Entries and their measured growth follow.
reported_property: growth (%)

[[record]]
molecule = "COc1cnc2c(c1)C(=O)c1c-2n(CCCN2CCOCC2)c(=O)c2cc(Cl)ccc12"
reported_property = "growth"
units_symbol = "%"
readout_number = -1.98

[[record]]
molecule = "Nc1nc(Nc2ccc(Cl)cc2)nn1S(=O)(=O)c1ccc(-c2ccc(F)cc2)cc1"
reported_property = "growth"
units_symbol = "%"
readout_number = 96.2

[[record]]
molecule = "COc1ccc(OC)c(NC(=O)c2cc3oc4ccccc4c3cc2O)c1"
reported_property = "growth"
units_symbol = "%"
readout_number = 96.9

[[record]]
molecule = "O=C(N/N=C/c1c[nH]c2ccccc12)c1cc(-c2ccccc2)on1"
reported_property = "growth"
units_symbol = "%"
readout_number = 94.9

[[record]]
molecule = "C/C(=N\\NC(=O)CSc1nc2sc3c(c2c(=O)n1-c1ccccc1)CCC(C)C3)c1ccc(Cl)cc1 (centres undefined)"
reported_property = "growth"
units_symbol = "%"
readout_number = -28

[[record]]
molecule = "O=C(Nc1cccc(C(F)(F)F)c1)N1CCN(c2cc(-c3cn(-c4ccccc4)nc3-c3cccc(O)c3)ccn2)CC1"
reported_property = "growth"
units_symbol = "%"
readout_number = 32.5

[[record]]
molecule = "CCNC(=O)Oc1ccc(/C(=C(/C)c2ccccc2)c2ccc(OCCN3CCCC3)cc2)cc1"
reported_property = "growth"
units_symbol = "%"
readout_number = 80.3

[[record]]
molecule = "Cn1cc(-c2csc(-c3cn(CCN)c4ccc(Br)cc34)n2)c2cccnc21"
reported_property = "growth"
units_symbol = "%"
readout_number = 28.6

[[record]]
molecule = "[O-][n+]1ccccc1CCN(O)CCc1cccc[n+]1[O-]"
reported_property = "growth"
units_symbol = "%"
readout_number = 110

[[record]]
molecule = "N#CCCN1C/C(=C/c2ccc(Br)cc2)C(=O)/C(=C/c2ccc(Br)cc2)C1"
reported_property = "growth"
units_symbol = "%"
readout_number = -71.3

[[record]]
molecule = "Clc1ccc2c(c1)nnn1c3ncccc3c(Br)c21"
reported_property = "growth"
units_symbol = "%"
readout_number = 76.1

[[record]]
molecule = "CCCCCCCCCCCC1=NC(C)(C)CN1C(C)(C)CO"
reported_property = "growth"
units_symbol = "%"
readout_number = -16

[[record]]
molecule = "Cn1ncc2ncc(-c3ccc4ncc(C#N)c(N5CCc6cc(F)c(Cl)cc65)c4c3)cc21"
reported_property = "growth"
units_symbol = "%"
readout_number = 8.25

[[record]]
molecule = "CC[C@H](CO)Nc1ccc2ncc(C#Cc3cncc(C(=O)Nc4ccc(CN5CCN(C)CC5)c(C(F)(F)F)c4)c3)n2n1"
reported_property = "growth"
units_symbol = "%"
readout_number = -67.8

[[record]]
molecule = "CCOC(=O)c1sc2ncnc(Nc3ccc4c(cnn4C(=O)Nc4ccc(C)c(Cl)c4)c3)c2c1C"
reported_property = "growth"
units_symbol = "%"
readout_number = 95.1

[[record]]
molecule = "O=C1c2ccccc2-c2nnc(-c3ccc(Br)cc3)cc21"
reported_property = "growth"
units_symbol = "%"
readout_number = 20.3

[[record]]
molecule = "CCN(CC)CCOc1ccc(/C(=C(\\C)Cc2ccc(OC)cc2)c2ccc(OC(=O)NCc3ccccc3)cc2)cc1"
reported_property = "growth"
units_symbol = "%"
readout_number = 43.3

[[record]]
molecule = "COc1cccc2c1C(=O)c1c(O)c3c(c(O)c1C2=O)C[C@@](O)(C(C)=O)C[C@@H]3O[C@H]1C[C@H](N)[C@H](O)[C@H](C)O1"
reported_property = "growth"
units_symbol = "%"
readout_number = -72.5

[[record]]
molecule = "N#CC1=C(N)Oc2c(sc3c(Br)cccc23)C1c1ccc(F)cc1 (centres undefined)"
reported_property = "growth"
units_symbol = "%"
readout_number = 11

